B1: CHMP4C (parent)
chain: TNIRLPNVPSSSLPAQPNRKPGMS

Variants of: B1
Assay: protein stability index of a GFP-peptide fusion (GPS, HEK-293T) (PSI 1-6); higher = more stable;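 further: lentivirally expressed fusions sorted by FACS into six bins by GFP to DsRed ratio, PSI derived from sequencing read proportions per bin multiplied by bin number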
Conditions: c terminus: a fixed tail appended
# protein stability index per record follows
Lab note: write the figure by itself, no unit.

Recorded results for 3 variants are shown here.
[
  {
    "mut": "R19I",
    "protein stability index": 4.61
  },
  {
    "mut": "N18K",
    "protein stability index": 4.62
  },
  {
    "mut": "S10G",
    "protein stability index": 4.75
  }
]

With those in mind, consider the next variant.
stdin: Any idea what its protein stability index is? The variant is I3L
stdout: 4.26
